Test system: T47D
Protocol Notes: Microculture tetrazolium assay
Format: cell-based
Condition Set: Homo sapiens
Structures can show the parent of a compound that is named as a salt.
Listing: IC50 of selected molecules
Readout Kind: IC50 (µM)

Molecule	Readout Kind	Uom	Measurement
CC(=O)C1CC2=C(C(=O)c3cc4ccccc4c(O)c3C2=O)C(O[C@H]2C[C@H](NC(=O)C(F)(F)F)[C@@H](O)[C@H](C)O2)O1 (stereo partly shown)	IC50	µM	5.24
CC(=O)[C@@H]1Cc2c(O)c3c(c(O)c2[C@@H](O[C@H]2O[C@H](CO)[C@@H](O)[C@H](O)[C@H]2NC(=O)N(CCCl)N=O)O1)C(=O)c1ccccc1C3=O	IC50	µM	20
CC(=O)[C@@H]1CC2=C(C(=O)c3cc4ccccc4c(O)c3C2=O)[C@@H](O[C@H]2O[C@H](CO)[C@@H](O)[C@H](O)[C@H]2NC(=O)N(CCCl)N=O)O1	IC50	µM	6.12
C=CC[C@H]1Cc2c(O)c3c(c(O)c2[C@H](O[C@H]2C[C@H](NC(=O)NCCCl)[C@H](O)[C@H](C)O2)O1)C(=O)c1ccccc1C3=O	IC50	µM	2.46
C[C@@H]1O[C@@H](OC2OC(C#N)Cc3c(O)c4c(c(O)c32)C(=O)c2ccccc2C4=O)C[C@H](NC(=O)C(F)(F)F)[C@@H]1O (mixture of isomers)	IC50	µM	3.51
CC[C@@H]1CC2=C(C(=O)c3cc4ccccc4c(O)c3C2=O)[C@@H](O[C@H]2C[C@H](N)[C@H](O)[C@H](C)O2)O1 [BCH-1614, hydrochloride]	IC50	µM	0.742
CC(=O)[C@H]1CC2=C(C(=O)c3cc4ccccc4c(O)c3C2=O)[C@H](O[C@H]2O[C@H](CO)[C@@H](O)[C@H](O)[C@H]2NC(=O)N(CCCl)N=O)O1	IC50	µM	12.6

====

Tested on: SKVLB
Protocol Notes: Microculture tetrazolium assay
Format: cell-based
Condition Set: IC50 ratio SKVLB/SKOV3
Counter-ions that a name gives are not always drawn.
Listing of entries alongside the reported VLB/OV3.

Molecule	System Tested	VLB/OV3
CC(=O)[C@@H]1CC2=C(C(=O)c3cc4ccccc4c(O)c3C2=O)[C@@H](O[C@H]2O[C@H](CO)[C@@H](O)[C@H](O)[C@H]2NC(=O)N(CCCl)N=O)O1 [BCH-2073]	SKVLB	2.67
COC[C@@H]1CC2=C(C(=O)c3cc4ccccc4c(O)c3C2=O)[C@@H](O[C@H]2C[C@H](N)[C@H](O)[C@H](C)O2)O1 [BCH-1695]	SKVLB	4.46
CC(=O)C1CC2=C(C(=O)c3cc4ccccc4c(O)c3C2=O)C(O[C@H]2C[C@H](NC(=O)C(F)(F)F)[C@H](OC(=O)c3ccc([N+](=O)[O-])cc3)[C@H](C)O2)O1 (mixture of isomers) [BCH-1122]	SKVLB	3.44
C[C@@H]1O[C@@H](O[C@@H]2O[C@@H](C#N)CC3=C2C(=O)c2cc4ccccc4c(O)c2C3=O)C[C@H](NC(=O)C(F)(F)F)[C@@H]1O [BCH-2008]	SKVLB	6.57
CC(=O)O[C@@H]1[C@H](C)O[C@@H](O[C@@H]2O[C@@H](C(C)=O)CC3=C2C(=O)c2cc4ccccc4c(O)c2C3=O)C[C@@H]1OC(C)=O [BCH-1166]	SKVLB	2.08
C[C@@H]1O[C@@H](O[C@@H]2OC=CC3=C2C(=O)c2cc4ccccc4c(O)c2C3=O)C[C@H](NC(=O)C(F)(F)F)[C@@H]1O [BCH-2002]	SKVLB	2.88
C[C@@H]1O[C@@H](O[C@@H]2OCCC3=C2C(=O)c2cc4ccccc4c(O)c2C3=O)C[C@H](NC(=O)C(F)(F)F)[C@@H]1O [BCH-1647]	SKVLB	1.67
CC[C@H]1Cc2c(O)c3c(c(O)c2[C@H](O[C@H]2C[C@H](N)[C@H](O)[C@H](C)O2)O1)C(=O)c1ccccc1C3=O [BCH-1633]	SKVLB	1.92
CCC1Cc2c(O)c3c(c(O)c2C(C[C@H]2C[C@H](N)[C@H](O)[C@H](C)O2)O1)C(=O)c1ccccc1C3=O (mixture of isomers) [BCH-2817, hydrochloride]	SKVLB	6.59
CC(C)[C@H]1Cc2c(O)c3c(c(O)c2[C@H](O[C@H]2C[C@H](N)[C@H](O)[C@H](C)O2)O1)C(=O)c1ccccc1C3=O [BCH-2049]	SKVLB	1.72
